Where do these numbers come from? They come from ChEMBL document CHEMBL1123394.

Documented No. of dead mice across a set of compounds
# System: Mus musculus
# assayOverview: Toxicity of compound against mice was determined at a concentration of 250 mg/kg
# Type: organism-based
# Parameters: dose 250 mg/kg
# testSettings: in vivo
measurementName: No. of dead mice

* Nc1ccn([C@@H]2O[C@H](CO)[C@H](O)[C@H]2O)c(=O)n1 | 0
* Nc1nc2c(ncn2[C@@H]2O[C@H](CO)[C@H](O)[C@H]2O)c(=O)[nH]1 | 5
* Nc1ncnc2c1ncn2[C@@H]1O[C@H](CO)[C@@H](O)[C@@H]1O [VIDARABINE] | 0
* Nc1nc2c(ncn2COCCO)c(=O)[nH]1 [ACYCLOVIR] | 0
